This collection of values is drawn from patent US20160114035A1.

- tgt: DRB1*0404
- protocol description: binding to purified HLA
# maps each entry to its pIC50
Schema: pIC50 number; meaning minus log10 of the concentration expressed in molar units.

// below: answered binders
# binder, pIC50
records = [
    ("AAAEFVAAWTLHAAA [E4.H12]", 8.39),
    ("AAAHFVAANTLHAAA [H4.N9.H12]", 8.17),
    ("AAAHFVAAFTLKAEA [H4.F9.E14]", 8.09),
    ("AAAEFVAAYTLHAAA [E4.Y9.H12]", 8.49),
]

Reported pIC50 ( AAANFVAAYTLHAAA [N4.Y9.H12] ) = 8.28
